biological target: Rat IKK-2 (Rattus norvegicus); test: Rat IKK-2 enzyme assay; assay type: biochemical; conditions: read-out: IC50 (μM) rIKK-2
Sequence (Q9QY78 whole entry): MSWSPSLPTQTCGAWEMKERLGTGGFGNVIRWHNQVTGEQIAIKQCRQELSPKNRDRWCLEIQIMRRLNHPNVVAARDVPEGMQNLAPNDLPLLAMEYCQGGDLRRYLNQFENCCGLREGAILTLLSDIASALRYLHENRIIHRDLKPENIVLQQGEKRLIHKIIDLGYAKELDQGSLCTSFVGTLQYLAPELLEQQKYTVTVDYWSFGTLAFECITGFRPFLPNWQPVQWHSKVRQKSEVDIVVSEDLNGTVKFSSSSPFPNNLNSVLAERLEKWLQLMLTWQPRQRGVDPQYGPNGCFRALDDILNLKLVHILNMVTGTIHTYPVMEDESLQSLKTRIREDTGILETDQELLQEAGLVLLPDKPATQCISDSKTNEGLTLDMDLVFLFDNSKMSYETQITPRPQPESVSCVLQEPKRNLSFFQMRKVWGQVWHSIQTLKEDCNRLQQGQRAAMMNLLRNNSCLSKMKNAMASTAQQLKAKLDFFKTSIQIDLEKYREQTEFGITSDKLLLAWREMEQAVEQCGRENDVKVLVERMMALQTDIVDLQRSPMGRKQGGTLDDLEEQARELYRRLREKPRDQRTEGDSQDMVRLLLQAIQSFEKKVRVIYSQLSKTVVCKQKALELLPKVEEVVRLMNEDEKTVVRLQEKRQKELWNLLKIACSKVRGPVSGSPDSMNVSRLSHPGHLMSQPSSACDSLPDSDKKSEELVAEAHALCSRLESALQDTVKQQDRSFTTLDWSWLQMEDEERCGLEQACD
Entries and their IC50 values follow.
Give the quantity in µM, number only.

Below, 2 molecules whose answers are already recorded.
{"columns": ["COMPOUND STRUCTURE STRING", "TESTED SYSTEM", "IC50 [µM]"],
 "data": [
  ["NC(=O)Nc1cn(-c2ccc(-c3cccc(O)c3)c(Cl)c2)nc1C(N)=O", "Rat IKK-2 (Rattus norvegicus)", 0.121],
  ["Cc1cc(-c2cccc(O)c2)ccc1-n1cc(NC(N)=O)c(C(N)=O)n1", "Rat IKK-2 (Rattus norvegicus)", 3.71]
]}

Data request: Recorded IC50 of NC(=O)Nc1cn(-c2ccc(-c3ccc(O)c(F)c3)c(F)c2)nc1C(N)=O , please.
Data returned: 6.16

Data request: Recorded IC50 of NC(=O)Nc1cn(-c2ccc(-c3ccccc3)cc2)nc1C(N)=O , please.
Data returned: 1.89
